Where these numbers come from: the RNAGym collection of RNA variant scans (doi:10.1126/science.aae0568)

B1: tRNA (parent)
chain: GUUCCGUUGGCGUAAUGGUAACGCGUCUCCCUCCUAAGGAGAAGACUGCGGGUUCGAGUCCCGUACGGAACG

- Variants of: B1
- procedure-text: yeast fitness relative to wild type (ratio to wild type); higher = fitter; tRNA-Arg(CCU), competitive growth, 37 C, YPD
Fewer inactive variants are shown than the library holds.
# yeast fitness listing for each entry below
Returns: the value as a bare number; no unit string appended.

# count of solved cases: 5
>>> test_result("C4A U19G A69C")
0.587
>>> test_result("C27A G50C C62G C66U")
0.606
>>> test_result("C24U G25C C31A C33G A65U")
0.584
>>> test_result("C27U A37C A40U A43U C66U")
0.583
>>> test_result("U26G G51A")
0.598

Query: yeast fitness; subject: U2A U13G U28A A36U A45U A57G
0.59

Query: yeast fitness; subject: C22G C49A G56C G58C C60G
0.605

Query: yeast fitness; subject: U2G C11U A45C U53G
0.583
